These measurements were taken from ChEMBL document CHEMBL1149675.

Test: Displacement of [125I]DMIC from amyloid beta 1-42 aggregates
Parameters: species or system Homo sapiens
pKi: −log10 of the molar value.
Binary classification by pKi, with 7 as an inclusive lower bound for Satisfied; all other cases are Not satisfied.

Reference set, count: 2
compound: O=C(/C=C/c1ncc[nH]1)c1ccc(I)cc1
label: Not satisfied
--
compound: CN(C)c1ccc(/C=C/C(=O)c2ccc(I)s2)o1
label: Not satisfied

Switching to the query record.
Check this compound for pKi at or above 7: `CN(C)c1ccc(/C=C/C(=O)c2ccc(I)cc2)o1`
Not satisfied

----------
// values below are reported pKi
Assay: Displacement of [125I]DMIC from amyloid beta 1-42 aggregates
Design: species or system Homo sapiens
Hey, just a heads up that pKi is the negative log base 10 of the concentration in molar.

Example results:
itemSmiles: Nc1ccc(/C=C/C(=O)c2ccc(I)s2)cc1
pKi: 6.92
--
itemSmiles: O=C(/C=C/c1ccoc1)c1ccc(I)cc1
pKi: 6.90
--
itemSmiles: O=C(/C=C/c1ccsc1)c1ccc(I)cc1
pKi: 7.03
--
itemSmiles: CN(C)c1ccc(C(=O)/C=C/c2ccc(Br)s2)cc1
pKi: 6.97

Specify reported pKi for the molecule shown: `CN(C)c1ccc(/C=C/C(=O)c2ccc(I)s2)cc1`
8.41

Give the measured pKi for `Nc1ccc(C(=O)/C=C/c2ccc(I)cc2)cc1`
6.61
